Target chain: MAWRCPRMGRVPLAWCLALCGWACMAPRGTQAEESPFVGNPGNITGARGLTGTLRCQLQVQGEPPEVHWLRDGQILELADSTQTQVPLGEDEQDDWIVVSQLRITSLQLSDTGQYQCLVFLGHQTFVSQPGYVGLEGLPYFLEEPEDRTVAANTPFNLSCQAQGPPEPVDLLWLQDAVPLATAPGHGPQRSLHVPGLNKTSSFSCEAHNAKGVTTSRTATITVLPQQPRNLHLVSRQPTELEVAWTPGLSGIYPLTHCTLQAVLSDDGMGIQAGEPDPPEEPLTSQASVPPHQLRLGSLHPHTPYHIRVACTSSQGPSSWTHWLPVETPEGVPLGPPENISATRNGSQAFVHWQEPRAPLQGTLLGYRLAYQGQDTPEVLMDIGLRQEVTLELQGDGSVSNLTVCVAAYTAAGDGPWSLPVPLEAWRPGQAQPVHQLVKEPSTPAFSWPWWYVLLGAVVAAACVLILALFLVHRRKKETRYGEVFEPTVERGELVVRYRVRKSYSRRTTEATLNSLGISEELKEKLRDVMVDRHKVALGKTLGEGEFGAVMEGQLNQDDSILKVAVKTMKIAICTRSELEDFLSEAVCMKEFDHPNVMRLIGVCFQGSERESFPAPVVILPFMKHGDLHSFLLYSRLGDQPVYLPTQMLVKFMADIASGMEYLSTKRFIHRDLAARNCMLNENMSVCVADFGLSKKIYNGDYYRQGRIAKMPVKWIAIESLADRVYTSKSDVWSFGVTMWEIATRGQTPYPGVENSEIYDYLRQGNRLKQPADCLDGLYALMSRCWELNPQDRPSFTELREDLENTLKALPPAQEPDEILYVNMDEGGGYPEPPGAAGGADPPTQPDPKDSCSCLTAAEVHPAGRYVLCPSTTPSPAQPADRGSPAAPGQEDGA
attribute_measured: IC50

I'd like to know its IC50. The compound in question is "COCCOc1nc(Nc2ccc(CN3CCN(C)CC3)cc2)nc2[nH]cc(-c3ccc4c(n3)CN(C)S4(=O)=O)c12" < 30 nM

I'd like to know its IC50. The compound in question is "COc1nc(Nc2ccc(CN3CCC(C)CC3)cc2)nc2[nH]cc(-c3ccc(F)cc3F)c12" < 30 nM
